// provenance: patent US20090192048A1

Experiment: Retention of peptides in V-bottomed polypropylene wells
Type: physicochemical
Details: V-bottom wells; 500V scan; unwashed
Experimental: The retention of peptides 2DOS-1 to 2DOS-16 (see above) on polypropylene wells of different geometries was investigated: 10 mM tris-HCl (pH 8.0) in 50% (v/v) aqueous acetonitrile was used as the solvent for the peptides and for TAMRA. […] The fluorescence images were analysed using ImageQuant TL v2003.03 (Amersham Biosciences).
Ends that are not written are not given here.
measured_endpoint: Untreated fluorescence

N-TAMRA-Ser-Asp- Ser-Ala-Ser-Ser- Ser-Lys-Ser-C ({TAMRA}-SDSASSSKS) [Peptide 2DOS-3]
9,020,171
N-TAMPA-Asp-Asp- Asp-Asp-Asp-Asp- Asp-C ({TAMRA}-DDDDDDD) [Peptide 2DOS-16]
9,782,527

Recorded Untreated fluorescence (substance N-TAMRA-Ser-Asp- Ser-Asp-Ser-Asp- Ser-Asp-Ser-C ({TAMRA}-SDSDSDSDS) [Peptide 2DOS-11] ): 9,705,293

Recorded result, N-TAMRA-Phe-Asp- Phe-Asp-Phe-Asp- Phe-Asp-Phe-C ({TAMRA}-FDFDFDFDF) [Peptide 2DOS-10] , Untreated fluorescence: 8,445,090

Untreated fluorescence for N-TAMPA-Asp-Asp- Ala-Asp-Ser-Asp- Lys-C ({TAMRA}-DDADSDK) [Peptide 2DOS-8] is 10,130,734

====

test: Retention of peptides in V-bottomed polypropylene wells; type: physicochemical; details: V-bottom wells; 500V scan
Ends that are not written are not given here.
# Percent retention listing for each entry below

Check out these entries, answers already filled in.
N-TAMRA-Asp-Phe- Ala-Phe-Ser-Phe- Lys-C ({TAMRA}-DFAFSFK) [Peptide 2DOS-6]
39%
N-TAMRA-Asp-Phe- Asp-Phe-Asp-Phe- Asp-C ({TAMRA}-DFDFDFD) [Peptide 2DOS-14]
13%

N-TAMRA-Asp-Ser- Ala-Ser-Ser-Ser- Lys-C ({TAMRA}-DSASSSK) [Peptide 2DOS-7] has a reported Percent retention of 9%

Looking up N-TAMRA-Phe-Asp- Phe-Asp-Phe-Asp- Phe-Asp-Phe-C ({TAMRA}-FDFDFDFDF) [Peptide 2DOS-10] , I found its Percent retention recorded as 33%

The reported value for N-TAMPA-Asp-Asp- Ala-Asp-Ser-Asp- Lys-C ({TAMRA}-DDADSDK) [Peptide 2DOS-8] in terms of Percent retention is 2%

Consider N-TAMPA-Asp-Asp- Asp-Ala-Asp-Ser- Asp-Lys-Asp-C ({TAMRA}-DDDADSDKD) [Peptide 2DOS-4] . Its measured Percent retention is 2%

Value of measured Percent retention for the entry N-TAMRA-Ser-Asp- Ser-Asp-Ser-Asp- Ser-Asp-Ser-C ({TAMRA}-SDSDSDSDS) [Peptide 2DOS-11] : 2%

Percent retention reported for this substance N-TAMRA-Ser-Asp- Ser-Ala-Ser-Ser- Ser-Lys-Ser-C ({TAMRA}-SDSASSSKS) [Peptide 2DOS-3] : 22%

Summary for this substance, N-TAMPA-Asp-Asp- Asp-Asp-Asp-Asp- Asp-C ({TAMRA}-DDDDDDD) [Peptide 2DOS-16] : Percent retention is 0%

Entry N-TAMRA-Asp-Ser- Asp-Ser-Asp-Ser- Asp-C ({TAMRA}-DSDSDSD) [Peptide 2DOS-15] — recorded Percent retention = 1%

Percent retention in this record for N-TAMPA-Asp-Asp- Asp-Asp-Asp-Asp- Asp-Asp-Asp-C ({TAMRA}-DDDDDDDDD) [Peptide 2DOS-12] : 1%

The recorded Percent retention for N-TAMRA-Phe-Asp- Phe-Ala-Phe-Ser- Phe-Lys-Phe-C ({TAMRA}-FDFAFSFKF) [Peptide 2DOS-2] is 86%

====

assay: Retention of peptides P1-1 to P1-5 on a polypropylene sheet after successive washes; type: physicochemical; settings: after second wash: 1 M NaCl/10 mM tris-HCl (pH 8.0), 30 minutes
Ends that are not written are not given here.
# maps each entry to its Average fluorescence, test array

TAMRA-F-G-F-G-F-G-F-S-F-A-F-D-F-G-F ({TAMRA}-FGFGFGFSFAFDFGF) [Peptide P1-3]
148,725,456
TAMRA-F-G-F-G-F-S-F-A-F-D-F-G-F ({TAMRA}-FGFGFSFAFDFGF) [Peptide P1-2]
135,695,639
TAMRA-F-G-F-G-F-G-F-G-F-G-F-S-F-A-F-D-F-G-F ({TAMRA}-FGFGFGFGFGFSFAFDFGF) [Peptide P1-5]
167,865,473

Average fluorescence, test array for TAMRA-F-G-F-S-F-A-F-D-F-G-F ({TAMRA}-FGFSFAFDFGF) [Peptide P1-1] is 127,216,792

Form: substance = TAMRA-F-G-F-G-F-G-F-G-F-S-F-A-F-D-F-G-F ({TAMRA}-FGFGFGFGFSFAFDFGF) [Peptide P1-4] ; Average fluorescence, test array = 159,100,527

====

Reported Retained fluorescence values for a set of substances
assay: Retention of peptides on Greiner polypropylene V-bottom wells; format: physicochemical; details: 400V scan, washed 15 minutes in 1 M NaCl in 10 mM tris-HCl (pH 8.0)
Ends that are not written are not given here.

Some solved cases for reference:
N-TAMRA-Asp-Phe- Ala-Phe-Ser-Phe- Lys-C ({TAMRA}-DFAFSFK) [Peptide 2DOS-6]
849,582
N-TAMPA-Asp-Asp- Asp-Asp-Asp-Asp- Asp-C ({TAMRA}-DDDDDDD) [Peptide 2DOS-16]
25,885
N-TAMPA-Asp-Asp- Ala-Asp-Ser-Asp- Lys-C ({TAMRA}-DDADSDK) [Peptide 2DOS-8]
80,770
N-TAMRA-Phe-Asp- Phe-Ala-Phe-Ser- Phe-Lys-Phe-C ({TAMRA}-FDFAFSFKF) [Peptide 2DOS-2]
2,731,827
N-TAMRA-Asp-Ser- Asp-Ser-Asp-Ser- Asp-C ({TAMRA}-DSDSDSD) [Peptide 2DOS-15]
65,142

From here, focus on the item given below.
Please fill in: Retained fluorescence reported for N-TAMRA-Ser-Asp- Ser-Ala-Ser-Ser- Ser-Lys-Ser-C ({TAMRA}-SDSASSSKS) [Peptide 2DOS-3] = 342,889

====

assay: Retention of peptides on Costar polypropylene V-bottom wells; format: physicochemical; settings: 400V scan
Ends that are not written are not given here.
measured_endpoint: Percent retention (%)
# output: bare number, implied unit %

Sample answers from the record:
N-TAMRA-Asp-Phe- Asp-Phe-Asp-Phe- Asp-C ({TAMRA}-DFDFDFD) [Peptide 2DOS-14]
11
N-TAMPA-Asp-Asp- Asp-Ala-Asp-Ser- Asp-Lys-Asp-C ({TAMRA}-DDDADSDKD) [Peptide 2DOS-4]
1
N-TAMPA-Asp-Asp- Asp-Asp-Asp-Asp- Asp-Asp-Asp-C ({TAMRA}-DDDDDDDDD) [Peptide 2DOS-12]
0

Noted for N-TAMRA-Ser-Asp- Ser-Ala-Ser-Ser- Ser-Lys-Ser-C ({TAMRA}-SDSASSSKS) [Peptide 2DOS-3] : its Percent retention reads 12

response.value for N-TAMRA-Asp-Ser- Asp-Ser-Asp-Ser- Asp-C ({TAMRA}-DSDSDSD) [Peptide 2DOS-15] (field: Percent retention) = 1

For record N-TAMPA-Asp-Asp- Ala-Asp-Ser-Asp- Lys-C ({TAMRA}-DDADSDK) [Peptide 2DOS-8] the listed Percent retention is 1

The measured Percent retention associated with N-TAMRA-Phe-Asp- Phe-Asp-Phe-Asp- Phe-Asp-Phe-C ({TAMRA}-FDFDFDFDF) [Peptide 2DOS-10] reads 24

Documented Percent retention of N-TAMRA-Phe-Asp- Phe-Ala-Phe-Ser- Phe-Lys-Phe-C ({TAMRA}-FDFAFSFKF) [Peptide 2DOS-2] : 94

So for N-TAMPA-Asp-Asp- Asp-Asp-Asp-Asp- Asp-C ({TAMRA}-DDDDDDD) [Peptide 2DOS-16] , the logged Percent retention turned out to be 0

// N-TAMRA-Asp-Ser- Ala-Ser-Ser-Ser- Lys-C ({TAMRA}-DSASSSK) [Peptide 2DOS-7] : Percent retention value = 6

Form field Percent retention, entry N-TAMRA-Ser-Asp- Ser-Asp-Ser-Asp- Ser-Asp-Ser-C ({TAMRA}-SDSDSDSDS) [Peptide 2DOS-11] : 2

Percent retention recorded for this substance, N-TAMRA-Asp-Phe- Ala-Phe-Ser-Phe- Lys-C ({TAMRA}-DFAFSFK) [Peptide 2DOS-6] , is 22
